target: human GLP-1R (human, UniProt P43220 24-463); experiment: cell-based or functional assay
Square brackets hold non-standard residues; d marks the D form. Side chains are listed from the residue outwards. Ends that are not written are not given here. Phe(2-F) = N[C@@H](Cc1ccccc1F)C(=O)O; NMeY = CN[C@@H](Cc1ccc(O)cc1)C(=O)O; αMeF = C[C@](N)(Cc1ccccc1)C(=O)O; Iva = CC[C@](C)(N)C(=O)O; Oda = not defined here; Aib = CC(C)(N)C(=O)O
observable: Agonist activity (EC50), Cre-luc reporter assay (nM)

Study these solved cases before continuing.
binder | observed
H-Y[Aib]EGT[αMeF]TSDK([Gly-Gly-Gly-Gly-Oda])[Aib]I[Aib]LDKQAQ[Iva]EFVRHLLNK[Aib]TRQR[Phe(2-F)]-NH2 (reading uncertain; also: printed as H-Tyr-Aib-Glu-Gly-Thr-αMePhe-Thr-Ser-Asp-Lys(-Gly-Gly-Gly-Gly-Oda)-Aib-Ile-Aib-Leu-Asp-Lys-Gln-Ala-Gln-Iva-Glu-Phe-Val-Arg-His-Leu-Leu-Asn-Lys-Aib-Thr-Arg-Gln-Arg-Phe(2-F)-NH2) | 0.11
[NMeY][Aib]EGT[αMeF]TSDK([Gly-Gly-Gly-Gly-Oda])AI[Aib]LEKQRQ[Iva]EFVRHLLNK[Aib]TRQRY-NH2 (reading uncertain; also: printed as Me-Tyr-Aib-Glu-Gly-Thr-αMePhe-Thr-Ser-Asp-Lys(-Gly-Gly-Gly-Gly-Oda)-Ala-Ile-Aib-Leu-Glu-Lys-Gln-Arg-Gln-Iva-Glu-Phe-Val-Arg-His-Leu-Leu-Asn-Lys-Aib-Thr-Arg-Gln-Arg-Tyr-NH2) | 2.3
H-Y[Aib]EGT[αMeF]TSDK([Gly-Gly-Gly-Gly-Oda])[Aib]I[Aib]LDKQAQ[Iva]EFVRHLLNK[Aib]TRQRY-NH2 (reading uncertain; also: printed as H-Tyr-Aib-Glu-Gly-Thr-αMePhe-Thr-Ser-Asp-Lys(-Gly-Gly-Gly-Gly-Oda)-Aib-Ile-Aib-Leu-Asp-Lys-Gln-Ala-Gln-Iva-Glu-Phe-Val-Arg-His-Leu-Leu-Asn-Lys-Aib-Thr-Arg-Gln-Arg-Tyr-NH2) | 0.078
Me-Y[Aib]EGT[αMeF]TSDK([Gly-Gly-Gly-Gly-Oda])[Aib]I[Aib]LDKQRQ[Iva]EFVRHLLNK[Aib]TRQR[Phe(2-F)]-NH2 (reading uncertain; also: printed as Me-Tyr-Aib-Glu-Gly-Thr-αMePhe-Thr-Ser-Asp-Lys(-Gly-Gly-Gly-Gly-Oda)-Aib-Ile-Aib-Leu-Asp-Lys-Gln-Arg-Gln-Iva-Glu-Phe-Val-Arg-His-Leu-Leu-Asn-Lys-Aib-Thr-Arg-Gln-Arg-Phe(2-F)-NH2) | 1.5
H-Y[Aib]EGT[αMeF]TSDK([Gly-Gly-Gly-Gly-Oda])SI[Aib]LEKQRQ[Iva]EFVRHLLNK[Aib]TRQRY-NH2 (reading uncertain; also: printed as H-Tyr-Aib-Glu-Gly-Thr-αMePhe-Thr-Ser-Asp-Lys(-Gly-Gly-Gly-Gly-Oda)-Ser-Ile-Aib-Leu-Glu-Lys-Gln-Arg-Gln-Iva-Glu-Phe-Val-Arg-His-Leu-Leu-Asn-Lys-Aib-Thr-Arg-Gln-Arg-Tyr-NH2) | 0.24

I. Me-Y[Aib]EGT[αMeF]TSDK([Gly-Gly-Gly-Gly-Pal])AI[Aib]LDKQRQ[Iva]EFVRHLLNK[Aib]TRQRY-NH2
II. H-Y[Aib]EGT[αMeF]TSDK([Gly-Gly-Gly-Gly-Pal])[Aib]I[Aib]LEKQRQ[Iva]EFVRHLLNK[Aib]TRQRY-NH2
QUERY: Of the two listed items, I and II , which carries the larger Agonist activity (EC50), Cre-luc reporter assay figure? Answer = label.
RESULT: I
(I: 0.1 nM, II: 0.061 nM)
